- Assay target: T1, HLA-A*02:01 (human)
- T1 construct: captured on streptavidin plates, detected with anti-β2m; also called peptide-receptive MHC molecules; MHC class I
- Test method notes: UV-ligand exchange + anti-β2m ELISA; exchange yield grade: ≥10% +, ≥20% ++, ≥50 +++, ≥75% ++++
- Method: The individual peptide-MHC complexes were produced by UV-ligand exchange, where a UV-sensitive peptide is cleaved upon UV-irradiation and exchanged with the peptide of interest as analyzed. […] 96 well MAXISorp plates (NUNC) were coated over night with 2 μg/ml streptavidin in PBS at room temperature, washed 4× and blocked for 1 h at 37° C. in 2% BSA containing blocking buffer. […] Absorption was measured at 450 nm. […]
Measurement label: peptide exchange yield

Query peptide exchange yield for ALKELMGPA (also called ALKELMGPA) [altORF-065]
20 to 50%

Give the reported value of peptide exchange yield for this record: AMVEIIPKV (also called AMVEIIPKV) [altORF-044]
≥ 75%

Look up and report measured peptide exchange yield for this entry: KLWTSLVNL (also called KLWTSLVNL) [altORF-024]
≥ 75%

Look up and state reported peptide exchange yield for KLPEGHLPEV (also called KLPEGHLPEV) [AHNAK2-003]
≥ 75%

Return value of peptide exchange yield for input FTLPFLVNL (also called FTLPFLVNL) [altORF-038] , no commentary.
≥ 75%

Look up and state reported peptide exchange yield for SLLGKPGLTI (also called SLLGKPGLTI) [altORF-060]
≥ 75%

Entry ALHDSPVYL (also called ALHDSPVYL) [altORF-004] needs its peptide exchange yield filled in; supply it.
≥ 75%

Answer with the recorded peptide exchange yield of GLASYLDRV (also called GLASYLDRV) [altORF-048] only.
≥ 75%

Please report the measured peptide exchange yield for YLGDSHVLL (also called YLGDSHVLL) [altORF-002]
≥ 75%

Report peptide exchange yield, nothing else, for this binder: LAFVSHVLI (also called LAFVSHVLI) [altORF-050]
20 to 50%

Kindly indicate its recorded peptide exchange yield. Item: MIISHRALEL (also called MIISHRALEL) [altORF-056]
20 to 50%
